Test system: HOP-92 NSCLC
assay summary: NCI tumour cell line growth inhibition, 48 h
*1 amine or outer side, *2 acyl side, *3 side chain or, on linkers, in order; H or OH if unused. Where a SMILES comes first, the peptide text is derived from it. [ ]: non-standard residue; d: D form. The star is where a group is joined. X41 = CCC(=O)CC1CC(C)CC(C(=O)[*:2])N1[*:1]; X40 = CCCCCCCCC(C)C(=O)*; Aib = CC(C)(N)C(=O)O; X42 = CC(CN(C)CCO)N*
experimental endpoint: TGI (µM)
Just the number in µM, nothing appended.

Before answering, review these 5 worked examples.
- compound: "Fc1ccc(C(OCCN2CCC3CCC(C2)N3Cc2cc3ccccc3[nH]2)c2ccc(F)cc2)cc1 (stereo not given)"
  experimental system: "HOP-92 NSCLC"
  unit abbrev: "µM"
  recorded value: 3.62
- compound: "O=C(NNS(=O)(=O)c1cc(C(F)(F)F)cc(C(F)(F)F)c1)c1cnn(-c2ccc(Cl)cc2)c1C(F)(F)F"
  experimental system: "HOP-92 NSCLC"
  unit abbrev: "µM"
  recorded value: 31.8
- compound: "CCCCCCCCC(C)C(=O)N1CCCC1C(=O)N1C(CC(=O)CC)CC(C)CC1C(=O)NC(C)C(=O)NC(C)(C)C(=O)NC(C)(C)C(=O)NC(C(=O)NC(C)C(=O)NC(C)(C)C(=O)NC(C)(C)C(=O)NC(C)CN(C)CCO)C(C)CC (stereo not given) (X40-P[X41]A[Aib][Aib]IA[Aib][Aib]-X42; configuration not given here)"
  experimental system: "HOP-92 NSCLC"
  unit abbrev: "µM"
  recorded value: 0.0435
- compound: "C=C(Cl)C(Cl)(CBr)CCC(Cl)C(C)(C)Cl (stereo not given)"
  experimental system: "HOP-92 NSCLC"
  unit abbrev: "µM"
  recorded value: 2.52
- compound: "CCNCCNc1cc(-c2ccc(F)cc2)c(C#N)c2nc3ccccc3n12"
  experimental system: "HOP-92 NSCLC"
  unit abbrev: "µM"
  recorded value: 8.12

Pending compound:
Which TGI value is on record for O=C(C1OC1c1ccc([N+](=O)[O-])cc1)C12CC3CC(CC(C3)C1)C2 (stereo not given) ?
40.3
